Target: Recombinant human factor D (Homo sapiens)
Assay: Human Complement Factor D Assay: Method 1
Assay type: biochemical
Conditions: Factor D inhibition, 10 nM factor D, Z-Lys-thiobenzyl substrate, fluorescence readout
PARAMETER MEASURED: IC50 (nM)

1) Cc1ccc2c(C(N)=O)nn(CC(=O)N3[C@@H]4C[C@@H]4C[C@H]3C(=O)Nc3cccc(Br)n3)c2c1    5
2) NC(=O)c1nn(CC(=O)N2C[C@H](F)[C@H](F)[C@H]2C(=O)Nc2cccc(Br)n2)c2ccccc12    8
3) NC(=O)c1nn(CC(=O)N2[C@@H]3C[C@@H]3C[C@H]2C(=O)Nc2cccc(I)n2)c2ccccc12    3
4) CC(=O)c1nn(CC(=O)N2[C@@H]3C[C@@H]3C[C@H]2C(=O)Nc2cccc(OC(F)F)n2)c2ccc(OCc3ncccn3)cc12    38
5) NC(=O)c1nn(CC(=O)N2[C@@H]3C[C@@H]3C[C@H]2C(=O)Nc2cccc(Br)n2)c2nnccc12    24

A. CC(=O)c1nn(CC(=O)N2C[C@H](F)C[C@H]2C(=O)Nc2cccc(Br)n2)c2cnccc12
B. Cc1ncc(NC(=O)[C@@H]2C[C@H]3C[C@H]3N2C(=O)Cn2nc(C(N)=O)c3ccccc32)nc1Br
Q) Field: entry with larger IC50 (options A / B ). Bench note: the answer is the label of the chosen record.
A) A

====

Biological target: Recombinant human factor D (Homo sapiens, UniProt P00746)
Sequence (P00746 26-253): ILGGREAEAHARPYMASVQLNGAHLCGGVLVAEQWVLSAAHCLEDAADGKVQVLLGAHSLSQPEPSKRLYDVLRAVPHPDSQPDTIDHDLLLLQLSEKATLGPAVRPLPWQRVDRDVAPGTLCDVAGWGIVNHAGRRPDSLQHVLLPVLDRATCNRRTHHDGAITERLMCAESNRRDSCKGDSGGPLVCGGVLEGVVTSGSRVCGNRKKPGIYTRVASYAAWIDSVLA
Test: Human Complement Factor D Assay: Method 1
Settings: Factor D inhibition, 10 nM factor D, Z-Lys-thiobenzyl substrate, fluorescence readout
pIC50: −log10 of the molar value.
PARAMETER MEASURED: pIC50

1) C[C@@]1(F)C[C@@H](C(=O)Nc2cccc(Br)n2)N(C(=O)Nc2cn(C(N)=O)c3ccccc23)C1    7.85
2) NC(=O)c1nn(CC(=O)N2[C@@H]3C[C@@H]3C[C@H]2C(=O)Nc2cncc(Br)n2)c2ncccc12    7.72
3) CO[C@H]1[C@@H](C(=O)Nc2cccc(Br)n2)N(C(=O)Cn2nc(C(C)=O)c3ccncc32)C[C@@H]1F    8.15
4) C[C@@]12C[C@@H](C(=O)Nc3cccc(Br)n3)N(C(=O)Nc3cn(C(N)=O)c4ccccc34)[C@@H]1C2    8.10
5) NC(=O)c1nn(CC(=O)N2[C@@H]3C[C@@H]3C[C@H]2C(=O)Nc2cncc(C(F)(F)F)n2)c2ccccc12    7.49
6) NC(=O)c1nn(CC(=O)N2[C@@H]3C[C@@H]3C[C@H]2C(=O)Nc2cccc(Br)n2)c2cnc(C3CC3)cc12    8.40
7) COc1cc(Br)nc(NC(=O)[C@@H]2C[C@H]3C[C@H]3N2C(=O)Cn2nc(C(N)=O)c3ccccc32)c1    8.30
8) NC(=O)c1nn(CC(=O)N2[C@@H]3C[C@@H]3C[C@H]2C(=O)Nc2cccc(Br)n2)c2ccncc12    8.05

I. NC(=O)c1nn(CC(=O)N2[C@@H]3C[C@@H]3C[C@H]2C(=O)Nc2cccc(Cl)n2)c2ccccc12
II. NC(=O)c1nn(CC(=O)N2CCS[C@H]2C(=O)Nc2cccc(Br)n2)c2ccccc12
Q) // which entry reports the smaller pIC50, I or II ? Bench note: the answer is the label of the chosen record.
A) II
(II: 8.00, I: 8.40)

a. NC(=O)n1cc(NC(=O)N2CCS[C@H]2C(=O)Nc2cccc(Br)n2)c2ccccc21
b. CC(=O)c1nn(CC(=O)N2[C@@H]3C[C@@H]3C[C@H]2C(=O)Nc2cncc(Br)n2)c2cnccc12
Q) // which entry reports the smaller pIC50, a or b ? Bench note: the answer is the label of the chosen record.
A) a
(a: 7.70, b: 7.96)

a. NC(=O)c1nn(CC(=O)N2[C@@H]3C[C@@H]3C[C@H]2C(=O)Nc2cccc(Br)n2)c2cc(F)ccc12
b. CC(=O)c1nn(CC(=O)N2[C@@H]3C[C@@H]3C[C@H]2C(=O)Nc2cncc(C(F)(F)F)n2)c2ccccc12
c. NC(=O)c1nn(CC(=O)N2C3CC(C3)C2C(=O)Nc2cccc(Br)n2)c2ccccc12 (stereo not drawn)
Q) Rank order required: pIC50, descending. # answer = labels listed in requested order
A) a, b, c
(a: 8.30, b: 7.77, c: 6.92)
